Tested on: GP2D cells
Assay Method Text: GP2D proliferation assay (120 h) (colorectal cancer, G12D)
Assay type: cell-based
Known pIC50 of a selection of molecules
Keep in mind that pIC50 stands for -log10 of concentration in molar terms.

Example results:
>>> print(df.to_string())
                               smiles_input  target_entity  experimental_result
0  C[C@H](Oc1cc(-c2cnsc2)nc(-c2noc3c2CCC[C@@]32CCCc3sc(N)c(C#N)c32)n1)[C@@H]1CCCN1C     GP2D cells                 6.35
1  CO[C@H]1CCN(C)[C@@H]1[C@H](C)Oc1cc(N2CCN(C)C3(CC3)C2)nc(-c2noc3c2CCC[C@@]32CCCc3sc(N)c(C#N)c32)n1     GP2D cells                 8.70
2  C[C@H](Oc1cc(N2CCNC3(CCC3)C2)nc(-c2noc3c2CCC[C@@]32CCCc3sc(N)c(C#N)c32)n1)[C@@H]1CCCN1C     GP2D cells                 8.30
3  C[C@H](Oc1cc(N2CC[C@H](N3CCCCC3)C2)nc(-c2noc3c2CCC[C@@]32CCCc3sc(N)c(C#N)c32)n1)[C@@H]1CCCN1C     GP2D cells                 8.05
4  C[C@H](Oc1cc(N2CCN(C)C3(CC3)C2)nc(-c2noc3c2CCC[C@@]32CCCc3sc(N)c(C#N)c32)n1)[C@@H]1C[C@@H](F)CN1C     GP2D cells                 8.10

// switching to the query molecule
Quick check: pIC50 of `C[C@H]1CN(C)CCCN1c1cc(N2CC[C@H](N(C)C)C2)nc(-c2noc3c2CCC[C@@]32CCCc3sc(N)c(C#N)c32)n1` ? 7.25
